// MIC collected for Trichophyton metagrophytes 530324
MEASURED QUANTITY: MIC (mg/L)

{"columns": ["COMPOUND STRUCTURE STRING", "TARGET SYSTEM", "MEASURED QUANTITY", "UNIT OF MEASURE", "QUALIFIER", "REPORTED RESULT"],
 "data": [
  ["Cc1ccc(-c2nnn(CC#CI)n2)cc1", "Trichophyton metagrophytes 530324", "MIC", "mg/L", "=", 0.19],
  ["CCCc1nnnn1CC(I)=C(I)I", "Trichophyton metagrophytes 530324", "MIC", "mg/L", "≤", 0.05],
  ["CCCc1nnn(CC#CI)n1", "Trichophyton metagrophytes 530324", "MIC", "mg/L", "=", 0.05],
  ["O=[N+]([O-])c1ccc(-c2nnn(CC#CI)n2)cc1", "Trichophyton metagrophytes 530324", "MIC", "mg/L", "<", 0.04],
  ["Oc1ccc(-c2nnnn2CC#CI)cc1", "Trichophyton metagrophytes 530324", "MIC", "mg/L", "=", 0.1],
  ["CC(C)c1nnnn1CC(I)=C(I)I", "Trichophyton metagrophytes 530324", "MIC", "mg/L", "=", 6.25]
]}

====

// MIC collected for Trichophyton metagrophytes 530324

{"columns": ["COMPOUND", "QUALIFIER", "MIC [µg/mL]"],
 "data": [
  ["CCCCCc1nnn(CC#CI)n1 [Compound No. 17]", "≤", 0.05],
  ["Clc1ccc(-c2nnn(CC#CI)n2)cc1 [Compound No. 25]", "=", 0.09],
  ["CC(C)c1nnn(CC#CI)n1 [Compound No. 7]", "≤", 0.05],
  ["CCCCCCCc1nnnn1CC(I)=C(I)I [Compound No. 41]", "=", 0.78],
  ["CC(C)c1nnn(CC(I)=C(I)I)n1 [Compound No. 48]", "=", 0.78],
  ["CCCCCc1nnn(CC(I)=C(I)I)n1 [Compound No. 42]", "=", 0.09],
  ["Clc1cc(Cl)cc(-c2nnn(CC#CI)n2)c1 [Compound No. 30]", "=", 0.09],
  ["CCCCCCCc1nnn(CC(I)=C(I)I)n1 [Compound No. 40]", "=", 0.78],
  ["CCCc1nnn(CC(I)=C(I)I)n1 [Compound No. 46]", "≤", 0.05],
  ["Cc1nnnn1CC#CI [Compound No. 2]", "=", 0.78],
  ["Clc1ccc(-c2nnnn2CC#CI)cc1 [Compound No. 26]", "<", 0.04],
  ["CC(C)(C)c1nnn(CC(I)=C(I)I)n1 [Compound No. 44]", "=", 0.39],
  ["CCCCCc1nnnn1CC(I)=C(I)I [Compound No. 43]", "=", 0.09],
  ["Cc1nnn(CC#CI)n1 [Compound No. 1]", "=", 3.12],
  ["COc1ccc(-c2nnn(CC#CI)n2)cc1 [Compound No. 24]", "≤", 0.05]
]}

====

# System: Pseudomonas cepacia M-0527
# METHOD DESCRIPTION: Minimal Inhibitory Concentration Method
# Format: cell-based
# TEST CONTEXT: Burkholderia cepacia, M0527, read-out: Minimal Inhibitory Conc.

{"columns": ["COMPOUND STRUCTURE STRING", "UNIT OF MEASURE", "QUALIFIER", "MIC"],
 "data": [
  ["IC(I)=C(I)Cn1nnnc1Cc1ccccc1", "µg/mL", "=", 3.13],
  ["CCCc1nnn(CC#CI)n1", "µg/mL", "=", 100],
  ["CC(C)(C)c1nnnn1CC(I)=C(I)I", "µg/mL", "=", 12.5],
  ["CC(C)c1nnn(CC#CI)n1", "µg/mL", ">", 100],
  ["CC(C)c1nnn(CC(I)=C(I)I)n1", "µg/mL", "=", 6.25]
]}
